# testSummary: APR_HepG2_MitoMass_72hr: Apredica 72-hour HepG2 Assay for Mitochondrial Mass (AID 2282924);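 note: MitoTracker Red CMXRos stain intensity per cell imaged as mitochondrial mass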
# measurementContext: high-content imaging, actives raise or lower the signal
# Description: APR_HepG2_72hr is a cell-based, multiplexed-readout assay that uses HepG2, a human liver cell line, with measurements taken at 72 hours after chemical dosing in a 384-well plate.APR_HepG2_MitoMass_72hr is one of 10 assay component(s) measured or calculated from the APR_HepG2_72hr assay. […] This assay endpoint, APR_HepG2_MitoMass_72hr, was analyzed with bidirectional fitting relative to DMSO as the negative control and baseline of activity. […]
The source made the active and inactive calls. Rule for the calls: active = hit-call score of the fitted dose curve at least 0.9, where 1 is the maximum; inactive = score below 0.9.
Lab note: assign the record to one of active, inactive

Sample answers from the record:
                                smilesentry  assignedclass
0                c1cc2ccc3cccc4ccc(c1)c2c34       inactive
1  CCC(=O)O[C@H]1CC[C@H]2[C@@H]3CCC4=CC(=O)CC[C@]4(C)[C@H]3CC[C@]12C         active
2  Cc1ccccc1CO[C@@H]1C[C@@]2(C(C)C)CC[C@]1(C)O2       inactive
3  O=C(NC(=O)c1c(F)cccc1F)Nc1cc(Cl)c(OC(F)(F)C(F)F)c(Cl)c1       inactive
4                CC(C)(c1ccccc1)c1ccc(O)cc1       inactive

Here is another compound to look at.
Hey, what did the test say about `COS(=O)(=O)OC` ?
inactive

Every entry's value here was drawn from PubChem BioAssay (EPA / NIEHS).
